- conditionDescription: in n-heptane, 283.15 K
measuredAttribute: solubility (mole fraction)
Would you mind answering with just the numeric figure?

Task: Need solubility (mole fraction), item CC(C)[C@H](C)[C@@H](O)[C@H](O)[C@@H](C)[C@H]1CC[C@H]2[C@@H]3COC(=O)[C@H]4C[C@H](O)[C@H](O)C[C@]4(C)[C@H]3CC[C@]12C
Output: 0.0001

---

- conditionDescription: in methanol, 303.15 K
measuredAttribute: solubility (mole fraction)
Would you mind answering with just the numeric figure?

Task: Need solubility (mole fraction), item CC(C)[C@H](C)[C@@H](O)[C@H](O)[C@@H](C)[C@H]1CC[C@H]2[C@@H]3COC(=O)[C@H]4C[C@H](O)[C@H](O)C[C@]4(C)[C@H]3CC[C@]12C
Output: 0.0675

---

- conditionDescription: in n-hexane, 293.15 K
measuredAttribute: solubility (mole fraction)
Would you mind answering with just the numeric figure?

Task: Need solubility (mole fraction), item CC(C)[C@H](C)[C@@H](O)[C@H](O)[C@@H](C)[C@H]1CC[C@H]2[C@@H]3COC(=O)[C@H]4C[C@H](O)[C@H](O)C[C@]4(C)[C@H]3CC[C@]12C
Output: 0.0002

---

- conditionDescription: in methanol, 298.15 K
measuredAttribute: solubility (mole fraction)
Would you mind answering with just the numeric figure?

Task: Need solubility (mole fraction), item CC(C)[C@H](C)[C@@H](O)[C@H](O)[C@@H](C)[C@H]1CC[C@H]2[C@@H]3COC(=O)[C@H]4C[C@H](O)[C@H](O)C[C@]4(C)[C@H]3CC[C@]12C
Output: 0.0588

---

- conditionDescription: in THF, 288.15 K
measuredAttribute: solubility (mole fraction)

Task: Need solubility (mole fraction), item CC(C)[C@H](C)[C@@H](O)[C@H](O)[C@@H](C)[C@H]1CC[C@H]2[C@@H]3COC(=O)[C@H]4C[C@H](O)[C@H](O)C[C@]4(C)[C@H]3CC[C@]12C
Output: 0.21

---

- conditionDescription: in isopropanol, 278.15 K
measuredAttribute: solubility (mole fraction)
Would you mind answering with just the numeric figure?

Task: Need solubility (mole fraction), item CC(C)[C@H](C)[C@@H](O)[C@H](O)[C@@H](C)[C@H]1CC[C@H]2[C@@H]3COC(=O)[C@H]4C[C@H](O)[C@H](O)C[C@]4(C)[C@H]3CC[C@]12C
Output: 0.00031

---

- conditionDescription: in acetonitrile, 293.15 K
measuredAttribute: solubility (mole fraction)
Would you mind answering with just the numeric figure?

Task: Need solubility (mole fraction), item CC(C)[C@H](C)[C@@H](O)[C@H](O)[C@@H](C)[C@H]1CC[C@H]2[C@@H]3COC(=O)[C@H]4C[C@H](O)[C@H](O)C[C@]4(C)[C@H]3CC[C@]12C
Output: 0.0009

---

- conditionDescription: in acetonitrile, 298.15 K
measuredAttribute: solubility (mole fraction)

Task: Need solubility (mole fraction), item CC(C)[C@H](C)[C@@H](O)[C@H](O)[C@@H](C)[C@H]1CC[C@H]2[C@@H]3COC(=O)[C@H]4C[C@H](O)[C@H](O)C[C@]4(C)[C@H]3CC[C@]12C
Output: 0.00103

---

- conditionDescription: in acetone, 308.15 K
measuredAttribute: solubility (mole fraction)
Would you mind answering with just the numeric figure?

Task: Need solubility (mole fraction), item CC(C)[C@H](C)[C@@H](O)[C@H](O)[C@@H](C)[C@H]1CC[C@H]2[C@@H]3COC(=O)[C@H]4C[C@H](O)[C@H](O)C[C@]4(C)[C@H]3CC[C@]12C
Output: 0.213
